cell viability (log2) values, listed per item
Test system: A673/TR/shEF
Assay: cell viability (LOESS-normalised, relative to median of negative controls) (log2 ratio); higher = more viable cells (less compound effect), active = hit call of the paper (over 3 MAD below the median)
Conditions: 2.5 µM; library screen: screen2; EWS-FLI1 expression: high (no doxycycline); treatment time: 72 h
The campaign covered roughly 3,200 compounds. About 300 (9.4%) showed activity. This excerpt belongs to a sample that is enriched for actives.
Answer with a number only.

Recorded cell viability (log2), per entry:
COC1=C(OC)C(=O)c2ccccc2C1=O
0.12
CCOC([O-])=Nc1c[n+](N2CCOCC2)no1
0.102
Nc1nc(OCc2ccccc2)c2[nH]cnc2n1
0.106

# ---- query compound ----
Entry C[C@H](Cc1ccccc1)Nc1ncnc2c1ncn2[C@@H]1O[C@H](CO)[C@H](O)C1O (some centres undefined) , cell viability (log2) reported as 0.0399
